condition_details: buffer; pH 7.4; 6.0 h; 150.0 µM
I'd appreciate it if you could supply solubility kinetic values for the items below.

Below: 5 molecules and their reported solubility kinetic.
> print(dat)
                                   molecule  reported.measurement
1  COC(=O)c1ccc(Oc2nc3c(c(=O)n(C)c(=O)n3C)n2CCC(C)C)cc1             < 1 µg/mL
2       COc1ccc(C)cc1Nc1c2c(nc3ccccc13)CCC2            > 45 µg/mL
3                   Cc1ccccc1NC(=O)Nc1cccs1            > 34 µg/mL
4  CCOC(=O)c1ccc(N2C(=O)c3n[nH]c(-c4cccs4)c3C2c2ccc(Cl)cc2Cl)cc1 (configuration not stated)             < 1 µg/mL
5  CCc1nc2c(sc3nc4c(cc32)COC(C)(C)C4)c(=O)n1Cc1ccco1            6.22 µg/mL

Report solubility kinetic for every entry below.
1. Cc1ccc(S(=O)(=O)Nc2ccc(C)cc2C(=O)Nc2nc(-c3ccccc3)cs2)cc1
2. CCN1CCC(N(Cc2ccc3c(c2)OCO3)C(=O)Nc2cc(Cl)ccc2C(=O)OC)CC1

["< 1 µg/mL", "58.5 µg/mL"]
